Measured IC50, listed per entry for reference.
target: Glucose-6-phosphate 1-dehydrogenase (Homo sapiens); assay: human G6PD enzyme inhibitors, dose response, selectivity assay for P. falciparum G6PD inhibitor project, biochemical, fluorescence (AID 504792); type: functional
Sequence (P11413 whole entry): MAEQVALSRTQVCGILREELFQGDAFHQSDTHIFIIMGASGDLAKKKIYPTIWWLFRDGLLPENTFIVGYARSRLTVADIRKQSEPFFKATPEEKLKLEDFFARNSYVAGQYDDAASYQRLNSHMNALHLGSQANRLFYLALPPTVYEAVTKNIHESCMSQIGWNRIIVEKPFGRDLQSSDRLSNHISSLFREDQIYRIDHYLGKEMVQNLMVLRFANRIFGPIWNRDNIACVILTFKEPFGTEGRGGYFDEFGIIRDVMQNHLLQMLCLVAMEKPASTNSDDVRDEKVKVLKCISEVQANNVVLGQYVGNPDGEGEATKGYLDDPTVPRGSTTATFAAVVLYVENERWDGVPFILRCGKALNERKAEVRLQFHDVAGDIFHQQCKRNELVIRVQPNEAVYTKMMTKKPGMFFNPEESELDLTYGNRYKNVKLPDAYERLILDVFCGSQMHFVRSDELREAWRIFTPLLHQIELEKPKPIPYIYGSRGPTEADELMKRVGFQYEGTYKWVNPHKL
The source made the active and inactive calls.

**Query** Any idea what IC50 was measured for `COc1cc(/C=N/Nc2nncn2N)ccc1OCc1c(C)no[n+]1[O-]` ?
**Result** 56.3 µM (inactive)

**Query** Okay, and `Cn1c(=O)c2[nH]c(-c3ccccc3)c(O)c2n(C)c1=O` ?
**Result** > 80 µM (inactive)

**Query** Okay, and `Cc1cc(N=NC(=O)c2ccccc2O)c2ccccc2c1O` ?
**Result** > 80 µM (inactive)

**Query** Okay, and `Oc1nc2ccccc2n2c(-c3ccccc3)nnc12` ?
**Result** 41.6 µM (inactive)

**Query** Okay, and `CN1CCN(C(=S)c2ccc(Br)cc2)CC1` ?
**Result** > 80 µM (inactive)

----------
Biological target: CAAX prenyl protease 2 (Homo sapiens, UniProt Q9Y256)
Sequence (Q9Y256 whole entry): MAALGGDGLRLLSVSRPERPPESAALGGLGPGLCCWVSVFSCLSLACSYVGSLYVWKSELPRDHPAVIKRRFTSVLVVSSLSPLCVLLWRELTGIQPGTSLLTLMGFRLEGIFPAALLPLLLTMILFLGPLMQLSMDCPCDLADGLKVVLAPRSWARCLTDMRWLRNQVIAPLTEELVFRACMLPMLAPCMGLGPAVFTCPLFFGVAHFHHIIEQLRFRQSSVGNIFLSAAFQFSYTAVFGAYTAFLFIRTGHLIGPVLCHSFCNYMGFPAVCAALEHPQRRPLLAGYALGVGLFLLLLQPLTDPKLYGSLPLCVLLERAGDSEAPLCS
Experiment: human Rce1 protease inhibitors, dose response, biochemical, yeast membranes, quenched-peptide fluorescence, cherry-pick (AID 588849)
The source made the active and inactive calls.
Endpoint: AC50

Illustrative cases are given below, each with its answer.
CCOC(=O)c1nc2cc3n(c(C)c-2c1C)C(C)C(CC)=C3C (stereo not given) ... 8.45 µM (active)
c1ccc(CCNc2ccnc3cc4ccccc4cc23)cc1 ... 94 µM (active)
C=CCn1cc(-c2ccccc2)cc(C#N)c1=O ... 6.89 µM (active)
COc1ccccc1-c1coc2c(CN3CCOCC3)c(O)ccc2c1=O ... 11.8 µM (active)

Now examine the next entry.
**Query** Any idea what AC50 was measured for `C[n+]1c2n(c3ccccc31)N=C(c1cc(C(C)(C)C)c(O)c(C(C)(C)C)c1)CS2` ?
**Result** > 100 µM (inactive)

----------
target: Histone-lysine N-methyltransferase NSD2 (Homo sapiens, UniProt O96028); format: biochemical
Sequence (O96028 whole entry): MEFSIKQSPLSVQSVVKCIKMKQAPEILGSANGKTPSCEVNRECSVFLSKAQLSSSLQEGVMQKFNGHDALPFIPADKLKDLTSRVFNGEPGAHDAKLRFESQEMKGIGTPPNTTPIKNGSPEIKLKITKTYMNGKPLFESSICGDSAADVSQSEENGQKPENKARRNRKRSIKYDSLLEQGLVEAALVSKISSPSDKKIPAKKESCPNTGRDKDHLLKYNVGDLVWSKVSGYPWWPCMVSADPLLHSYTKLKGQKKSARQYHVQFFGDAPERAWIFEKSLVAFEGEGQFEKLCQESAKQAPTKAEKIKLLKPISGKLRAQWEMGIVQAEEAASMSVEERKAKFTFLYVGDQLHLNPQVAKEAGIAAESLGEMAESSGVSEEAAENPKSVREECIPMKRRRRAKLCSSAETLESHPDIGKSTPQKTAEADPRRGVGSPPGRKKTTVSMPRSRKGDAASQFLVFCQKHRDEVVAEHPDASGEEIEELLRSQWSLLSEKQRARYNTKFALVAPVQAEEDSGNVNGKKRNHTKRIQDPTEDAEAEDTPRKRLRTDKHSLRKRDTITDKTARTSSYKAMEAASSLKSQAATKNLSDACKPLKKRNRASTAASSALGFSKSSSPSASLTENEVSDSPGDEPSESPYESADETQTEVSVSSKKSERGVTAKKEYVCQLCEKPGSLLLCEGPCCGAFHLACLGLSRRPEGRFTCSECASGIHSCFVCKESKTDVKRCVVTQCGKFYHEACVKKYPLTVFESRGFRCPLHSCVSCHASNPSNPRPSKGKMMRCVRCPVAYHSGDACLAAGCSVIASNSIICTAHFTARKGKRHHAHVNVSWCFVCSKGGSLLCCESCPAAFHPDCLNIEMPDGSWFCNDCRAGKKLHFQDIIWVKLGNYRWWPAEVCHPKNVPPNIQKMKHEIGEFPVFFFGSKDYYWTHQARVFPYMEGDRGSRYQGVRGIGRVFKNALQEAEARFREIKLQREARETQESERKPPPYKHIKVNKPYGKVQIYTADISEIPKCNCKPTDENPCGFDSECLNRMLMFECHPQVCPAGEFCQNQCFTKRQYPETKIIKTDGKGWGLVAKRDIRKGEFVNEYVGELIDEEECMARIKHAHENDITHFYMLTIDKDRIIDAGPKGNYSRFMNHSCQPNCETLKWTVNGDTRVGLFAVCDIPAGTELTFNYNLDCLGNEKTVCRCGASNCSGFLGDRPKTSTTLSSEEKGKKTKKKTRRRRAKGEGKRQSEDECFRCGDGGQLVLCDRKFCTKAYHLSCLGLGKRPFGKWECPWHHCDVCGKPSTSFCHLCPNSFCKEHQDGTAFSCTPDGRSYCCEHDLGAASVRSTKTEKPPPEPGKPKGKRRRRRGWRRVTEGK
Active and inactive are the calls of the source.
Measured AC50, listed per entry for reference.

**Query** Any idea what AC50 was measured for `O=C(O)c1[nH]c2ccccc2c1C(c1cc(Cl)cc([N+](=O)[O-])c1O)c1c(C(=O)O)[nH]c2ccccc12` ?
**Result** 16.6 µM (active)

**Query** Okay, and `O=C1C=C(NCc2ccccc2)c2ccccc2C1=O` ?
**Result** 2.16 µM (active)

**Query** Okay, and `CNCCCOc1cccc(OC(C)C)c1` ?
**Result** 17.3 µM (active)

**Query** Okay, and `Cc1ccc(C(=O)NC(=S)c2c(C)cc3ccccn23)cc1` ?
**Result** 11 µM (active)
